Below, each of the variants is paired with its reported protein stability index value.
B1: C22orf15 (parent)
chain: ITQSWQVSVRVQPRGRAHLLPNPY

- Variants of: B1
- Procedure Details: protein stability index of a GFP-peptide fusion (GPS, HEK-293T) (PSI 1-6); higher = more stable;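 note: lentivirally expressed fusions sorted by FACS into six bins by GFP to DsRed ratio, PSI derived from sequencing read proportions per bin multiplied by bin number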
- Condition: c terminus: a fixed tail appended
In your answer, state the number alone without any accompanying words.

Please review the following examples before continuing.
Prompt: Item under review: "S8C" . Reported protein stability index?
Response: 1.12

Prompt: Item under review: "Q3H" . Reported protein stability index?
Response: 2.02

Prompt: Item under review: "P21K" . Reported protein stability index?
Response: 1.64

Next:
Prompt: Item under review: "P21S" . Reported protein stability index?
Response: 1.7

Prompt: Item under review: "Q12D" . Reported protein stability index?
Response: 2.27

Prompt: Item under review: "G15P" . Reported protein stability index?
Response: 3.81

Prompt: Item under review: "S4P" . Reported protein stability index?
Response: 1.65

Prompt: Item under review: "H18P" . Reported protein stability index?
Response: 2.7

Prompt: Item under review: "R16N" . Reported protein stability index?
Response: 1.4

Prompt: Item under review: "P21E" . Reported protein stability index?
Response: 1.6

Prompt: Item under review: "Y24W" . Reported protein stability index?
Response: 2.93

Prompt: Item under review: "Y24F" . Reported protein stability index?
Response: 2.47

Prompt: Item under review: "W5L" . Reported protein stability index?
Response: 3.62

Prompt: Item under review: "P23W" . Reported protein stability index?
Response: 1.11

Prompt: Item under review: "V11P" . Reported protein stability index?
Response: 1.8

Prompt: Item under review: "V9Q" . Reported protein stability index?
Response: 2.44

Where do these numbers come from? They come from the supplement of paper PMC10567573.
